Field: pIC50. Provide a value for each of the compounds that follow.
system-name: APOL1 (Homo sapiens, UniProt O14791)
Sequence (O14791 whole entry S342G/I384M, form open): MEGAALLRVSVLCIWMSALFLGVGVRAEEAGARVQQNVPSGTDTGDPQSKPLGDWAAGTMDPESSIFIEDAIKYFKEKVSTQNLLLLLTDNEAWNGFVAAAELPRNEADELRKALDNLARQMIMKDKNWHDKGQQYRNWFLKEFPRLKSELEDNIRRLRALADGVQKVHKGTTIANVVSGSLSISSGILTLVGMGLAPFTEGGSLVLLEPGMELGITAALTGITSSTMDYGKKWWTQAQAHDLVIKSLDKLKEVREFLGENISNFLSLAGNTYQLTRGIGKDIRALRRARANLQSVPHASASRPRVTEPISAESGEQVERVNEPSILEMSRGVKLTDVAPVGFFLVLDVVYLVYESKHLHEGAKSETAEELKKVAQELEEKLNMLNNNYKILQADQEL
experiment: Multi-Tox Assay (MultiTox-Fluor Multiplex Cytotoxicity Assay in tet-inducible APOL1 T-REx-HEK293 cells; Table 46 does not say which APOL1 variant G0/G1/G2)
condition-info: IP50 = IC50 for cell proliferation, APOL1 variant not given
pIC50: −log10 of the molar value.

- compound: "C[C@H]1C[C@@]2(C[C@@H](c3cn(C)nn3)N1)OC[C@@H](O)c1cc(Cl)sc12 [Compound 174]"
  pIC50: "> 7.30"
- compound: "COc1cccc(Cn2cc([C@@H]3C[C@]4(C[C@H](C)N3)OCC(F)(F)c3cc(Cl)sc34)nn2)c1 [Compound 319]"
  pIC50: "6.30 to 7.30"
- compound: "C[C@H]1C[C@@]2(C[C@@H](c3cccc4cn[nH]c34)N1)OCCc1cc(Cl)sc12 (racemic) [Compound 168]"
  pIC50: "< 6.30"
- compound: "C[C@H]1C[C@@]2(C[C@@H](c3cnn(C4CCOCC4)c3)N1)OCCc1cc(Cl)sc12 (racemic) [Compound 100]"
  pIC50: "> 7.30"
- compound: "C[C@H]1C[C@@]2(C[C@@H](c3cc(C4CCOCC4)[nH]n3)N1)OCCc1cc(Cl)sc12 (stereo in doubt) [Compound 114]"
  pIC50: "> 7.30"

# context switch: different compound, same pIC50
Qu. Fill in the recorded pIC50 for this compound, with APOL1 (Homo sapiens, UniProt O14791) as test system: CC(CO)Cn1cc([C@@H]2C[C@]3(C[C@H](C)N2)OC[C@@H](O)c2cc(Cl)sc23)nn1 (stereo partly drawn) [Compound 256]
Ans. 6.30 to 7.30
